Test system: Pseudomonas aeruginosa
Assay: Binding affinity to Pseudomonas aeruginosa MurB assessed as change in melting temperature at 1 mM by differential scanning fluorimetry
quantity name: ΔTm (°C)

Answered examples (5):
cpd smiles	units symbol	ΔTm
CS(=O)(=O)NC(=O)c1cnn(-c2ccccc2)c1C(F)(F)F	°C	0.5
O=C(O)CCc1cccc(Cl)c1	°C	0.5
NC(=O)c1cccc(-n2ncc(C(=O)O)c2C(F)(F)F)c1	°C	0.5
O=C(O)c1cnn(-c2ccc(C(F)(F)F)cc2)c1C(F)(F)F	°C	1
Cc1c(C(=O)O)cc(CCO)n1-c1ccccc1	°C	2

[I] Cc1ccccc1-n1c(C)cc(C(=O)O)c1C
[II] O=C(O)COc1ccc(Cl)c(Cl)c1
Between the two listed entries I and II , which has its ΔTm at the higher number? When you have decided, please share the label of that item.
I

[1] O=C(NS(=O)(=O)c1ccccc1)c1cnn(-c2ccccc2)c1C(F)(F)F
[2] Cc1cccc(C)c1-n1ncc(C(=O)O)c1C(F)(F)F
[3] Cc1c(-n2c(C)cc(C(=O)O)c2C)ccc(Cl)c1Cl
[4] Nc1c(C(=O)O)cnn1-c1ccccc1
Please list these compounds in decreasing order of ΔTm. // rank by listing labels in the order requested
3, 2, 1, 4
(3: 4 °C, 2: 2.5 °C, 1: 1 °C, 4: 0 °C)

---

System: Pseudomonas aeruginosa
Experiment: Binding affinity to Pseudomonas aeruginosa MurB assessed as change in melting temperature at 1 mM by differential scanning fluorimetry
quantity name: ΔTm (°C)

cpd smiles	ΔTm, °C
N#CCc1nc2ccccc2s1	0
O=C(O)c1cnn(Cc2ccccc2)c1C(F)(F)F	1
O=C(O)c1cnn(-c2ccccc2)c1CO	0.2
Cc1ccc(-n2ncc(C(=O)O)c2C(F)(F)F)c(C)c1	2.3
O=C(O)c1cnn(-c2ccc(Cl)c(Cl)c2)c1C(F)(F)F	2.3

[1] Cc1ccccc1-n1ncc(C(=O)O)c1C(F)(F)F
[2] NC(=O)c1cnn(-c2ccccc2)c1C(F)(F)F
Select the item whose ΔTm value is smaller, choosing between 1 and 2 . When you have decided, please share the label of that item.
2
(2: 0 °C, 1: 2 °C)

[A] Cc1cc(C(=O)O)c(C)n1-c1ccc(Cl)cc1
[B] Cc1cccc(C)c1-n1c(C)cc(C(=O)O)c1C
[C] O=C(O)c1ccc(Cl)c(Cl)c1
Please list these compounds in decreasing order of ΔTm. // rank by listing labels in the order requested
B, A, C

---

System: Pseudomonas aeruginosa
Assay: Binding affinity to Pseudomonas aeruginosa MurB assessed as change in melting temperature at 1 mM by differential scanning fluorimetry
quantity name: ΔTm (°C)

cpd smiles	ΔTm [°C]
NC(=O)C1=CN([C@@H]2O[C@H](COP(=O)(O)OP(=O)(O)OC[C@H]3O[C@@H](n4cnc5c(N)ncnc54)[C@H](OP(=O)(O)O)[C@@H]3O)[C@@H](O)[C@H]2O)C=CC1	3
Cc1cc(Cl)c(Cl)cc1-n1ncc(C(=O)NS(=O)(=O)c2ccccc2)c1C(F)(F)F	2.7
Cc1cc(C(=O)O)c(C(F)(F)F)n1-c1ccccc1	2
O=C(O)c1cnn(-c2ccccc2F)c1C(F)(F)F	1
O=C(O)c1cnn(-c2ccccc2Cl)c1C(F)(F)F	1.5
Cc1cc(C(=O)O)c(C)n1Cc1cccs1	1.5

[A] Cc1cccc(C)c1-n1ncc(C(=O)NS(=O)(=O)c2cccc(Br)c2)c1C(F)(F)F
[B] Cc1ccccc1-n1c(C)cc(C(=O)O)c1C(F)(F)F
Between the two listed entries A and B , which has its ΔTm at the higher number? When you have decided, please share the label of that item.
B
(B: 2.5 °C, A: 1.3 °C)

---

System: Pseudomonas aeruginosa
Experiment: Binding affinity to Pseudomonas aeruginosa MurB assessed as change in melting temperature at 5 mM by differential scanning fluorimetry
quantity name: ΔTm (°C)

Answered examples (5):
cpd smiles	ΔTm, °C
O=C(O)COc1ccc(Cl)c(Cl)c1	1.5
Cc1cc(CC(=O)O)on1	1
O=C(O)Cc1ccc(Cl)c(Cl)c1	1.5
O=C1Nc2ccccc2C1=O	3.5
NCc1ccc2[nH]ccc2c1	1

[1] Cc1cc(C(=O)O)c(C)n1Cc1cccs1
[2] O=C(O)c1ccc(Cl)c(Cl)c1
Select the item whose ΔTm value is smaller, choosing between 1 and 2 . When you have decided, please share the label of that item.
2
(2: 1 °C, 1: 2 °C)

[a] CN1C(=O)C(=O)c2ccccc21
[b] N#CCc1nc2ccccc2s1
Between the two listed entries a and b , which has its ΔTm at the higher number? When you have decided, please share the label of that item.
a

[I] Cc1cc(C(=O)O)n[nH]1
[II] Cc1c(C(=O)O)cnn1-c1ccccc1
Select the item whose ΔTm value is smaller, choosing between I and II . When you have decided, please share the label of that item.
I

---

Experiment: Binding affinity to Pseudomonas aeruginosa MurB assessed as dissociation constant at 3 mM by isothermal titration calorimetry
pKd: −log10 of the molar value.
quantity name: pKd

cpd smiles	quantity name	measured
O=C(O)c1cnn(-c2ccccc2Cl)c1C(F)(F)F	pKd	3.83
Cc1cc(C(=O)O)c(C(F)(F)F)n1-c1ccccc1	pKd	3.95
Cc1c(-n2c(C)cc(C(=O)O)c2C(F)(F)F)ccc(Cl)c1Cl	pKd	4.94
Cc1cc(C(=O)O)c(C)n1-c1ccccc1	pKd	3.96

[a] O=C(O)c1cnn(-c2ccc(Cl)c(Cl)c2)c1C(F)(F)F
[b] Cc1ccc(C)c(-n2ncc(C(=O)O)c2C(F)(F)F)c1
[c] Cc1c(-n2ncc(C(=O)O)c2C(F)(F)F)ccc(Cl)c1Cl
Please list these compounds in decreasing order of pKd. // rank by listing labels in the order requested
c, a, b

[a] Cc1cc(Cl)c(Cl)cc1-n1c(C)cc(C(=O)O)c1C
[b] Cc1cc(Cl)c(Cl)cc1-n1ncc(C(=O)NS(=O)(=O)c2ccccc2)c1C(F)(F)F
Between the two listed entries a and b , which has its pKd at the higher number? When you have decided, please share the label of that item.
b
(b: 4.92, a: 4.62)

---

Tested on: Pseudomonas aeruginosa
Assay: Binding affinity to Pseudomonas aeruginosa MurB assessed as change in melting temperature at 1 mM by differential scanning fluorimetry
quantity name: ΔTm (°C)

Answered examples (6):
cpd smiles	units symbol	measured
NC(=O)c1ccc[n+]([C@@H]2O[C@H](COP(=O)(O)OP(=O)(O)OC[C@H]3O[C@@H](n4cnc5c(N)ncnc54)[C@H](OP(=O)(O)O)[C@@H]3O)[C@@H](O)[C@H]2O)c1	°C	3.5
Cc1c(C(=O)NCc2ccccc2)cnn1-c1ccccc1	°C	0
Cc1cc(Cl)c(Cl)cc1-n1c(C)cc(C(=O)O)c1C(F)(F)F	°C	4.7
Cc1c(-n2ncc(C(=O)O)c2C(F)(F)F)ccc(Cl)c1Cl	°C	3.7
Cc1cc(C(=O)O)c(C)n1-c1ccccc1	°C	2
Cc1nc(C(=O)O)c(C)n1-c1ccccc1	°C	0.7

[A] Cc1ccc(C)c(-n2ncc(C(=O)O)c2C(F)(F)F)c1
[B] CN1C(=O)C(=O)c2ccccc21
Between the two listed entries A and B , which has its ΔTm at the higher number? When you have decided, please share the label of that item.
A

[I] CCOC(=O)c1cnn(-c2ccccc2Cl)c1C(F)(F)F
[II] Cc1c(C(=O)O)nnn1-c1ccccc1
Select the item whose ΔTm value is smaller, choosing between I and II . When you have decided, please share the label of that item.
I
(I: 0 °C, II: 0.5 °C)

[I] O=C(O)c1cnn(-c2ccccc2Br)c1C(F)(F)F
[II] O=C(O)c1cnn(-c2ccccc2)c1C(F)(F)F
Select the item whose ΔTm value is smaller, choosing between I and II . When you have decided, please share the label of that item.
II
(II: 1 °C, I: 2 °C)

---

System: Pseudomonas aeruginosa
Assay: Binding affinity to Pseudomonas aeruginosa MurB assessed as change in melting temperature at 1 mM by differential scanning fluorimetry
quantity name: ΔTm (°C)

cpd smiles	ΔTm (°C)
O=C(O)c1cnn(-c2cccs2)c1C(F)(F)F	0.3

[I] O=C1Nc2ccccc2C1=O
[II] Cc1c(C(=O)NS(=O)(=O)Cc2ccccc2)cnn1-c1ccccc1
[III] Cc1cccc(C)c1-n1ncc(C(=O)NS(=O)(=O)c2ccccc2)c1C(F)(F)F
[IV] Cc1cc(Cl)c(Cl)cc1-n1ncc(C(=O)O)c1C(F)(F)F
[V] Cc1c(C(=O)O)cnn1-c1ccccc1
Reorder the items by ΔTm, least to greatest. // rank by listing labels in the order requested
II, V, I, III, IV

---

System: Pseudomonas aeruginosa
Assay: Binding affinity to Pseudomonas aeruginosa MurB assessed as change in melting temperature at 5 mM by differential scanning fluorimetry
quantity name: ΔTm (°C)

cpd smiles	quantity name	measured
O=C(O)CCc1cccc(Cl)c1	ΔTm	1
NCc1ccc2sccc2c1	ΔTm	1
O=C(O)Cc1ccccc1	ΔTm	1

---

Tested on: Pseudomonas aeruginosa
Assay: Binding affinity to Pseudomonas aeruginosa MurB assessed as change in melting temperature at 1 mM by differential scanning fluorimetry
quantity name: ΔTm (°C)

Answered examples (2):
cpd smiles	ΔTm (°C)
O=C(O)c1cnn(-c2c(Cl)cccc2Cl)c1C(F)(F)F	2.5
O=C(O)Cc1ccc(Cl)c(Cl)c1	1

[I] Cc1cc(C(=O)O)c(C)n1-c1cccc(Cl)c1
[II] O=C(O)c1cnn(-c2ccncc2)c1C(F)(F)F
[III] O=C(O)c1cnn(-c2ccccc2)c1O
[IV] O=C(O)c1cnn(Cc2cccs2)c1C(F)(F)F
Please list these compounds in decreasing order of ΔTm. // rank by listing labels in the order requested
I, IV, III, II
(I: 1.5 °C, IV: 1 °C, III: 0.7 °C, II: 0 °C)
